tested on: H3K4me3 and H3K9me3 levels in KYSE150 cells; format: cell-based; details: read-out: EC50 for H3K4me3
pEC50: −log10 of the molar value.
test readout: pEC50

* COC(=O)/C=C/C(=O)N(O)CCCCNCc1ccc(COC(=O)Nc2cccc3ccccc23)cc1 | 4.99
